- PROTOCOL TEXT: Toxicity liver stage against HepG2, at 10uM
- Type: cell-based
- Set-up: test concentration 10 uM, cell line HepG2-A16-CD81EGFP
- CONDITIONS USED: human, HepG2-A16-CD81EGFP cells; read-out: INHIBITION
MEASURED QUANTITY: cytotoxicity at 10 µM (%)
One number for each entry, in %.

Example entries begin here.
1) CCc1noc(CN(CCS(C)(=O)=O)C(C)(C)C)n1 : -0.718
2) Cn1c(=O)c2c(c3ccccc31)OC(C)(C)CC2 : 17.8
3) CCS(=O)(=O)CC(C)NC(=O)N(C)Cc1cc(Cl)cn1C (stereo not given) : -1.04
4) CCCC(=O)NS(=O)(=O)c1ccc(C#N)c(C(F)(F)F)c1 : -12.8
5) CC(=O)N1CC[C@@H]2CN(Cc3ccncc3)S(=O)(=O)[C@@H]2CC1 : 5.07
6) CC(C)c1nc(C2CCCN2c2cnc3ccccc3n2)no1 (stereo not given) : -3.13
7) CC(C)c1ncc(CN2CCCC(CO)C2)cn1 (stereo not given) : -1.49
8) CN(Cc1nnnn1C1CC1)c1cccc2ccccc12 : 8.38

// each compound listed below needs its cytotoxicity at 10 µM
1. COc1ccc(CNC(=O)CNc2cc3c(cc2Cl)OCCO3)cc1
2. Cc1ccsc1CN(CCN(C)C)Cc1ccccn1
3. O=C(NCc1nccn1CCc1ccccc1)NCC1(O)CCC1
4. C=C(C)COc1cccc(CN(C)C(C)c2ccncn2)c1 (stereo not given)
5. Cc1nc(Nc2nnc(C)s2)cc(C2CCCN2C)n1 (stereo not given)
6. CC(=O)N1C[C@H]2CCCN(Cc3ccc(C)o3)[C@H]2C1
7. Fc1ccccc1CNc1ccnc(C2CCNCC2)c1
8. CNc1cc(C)nc(N2CCC3(CC2)[C@H](O)C[C@@H]3O)n1

## Result
[-0.238, -16.1, -2.97, -47.6, 8.67, -1.36, 8.88, -17.5]

// each compound listed below needs its cytotoxicity at 10 µM
1. CCCc1nc(C)c(C(=O)NC2CCN(C3CC3)C2)s1 (stereo not given)
2. c1cnc(N2C[C@H]3CC[C@@H](C2)N(Cc2ccsc2)C3)nc1
3. Cc1cc(C(=O)N[C@H]2COC[C@@H]2N2CCOCC2)c2ccc(F)cc2n1
4. CCc1ncc(C(=O)NCCNc2ncnc3sccc23)s1
5. O=C(Nc1ccc(-c2nc3c([nH]2)CCNC3)cc1)N1CCCC1
6. CN1CCC(c2cccc(NCc3nccn3C)n2)CC1
7. CN1CCN(Cc2noc(CCc3nc(-c4ccccc4)no3)n2)CC1
8. COCc1noc(C2(c3ccc(F)cc3)CCC2)n1

## Result
[-7.82, 1.2, -48.2, 49.6, -4.36, 8.28, 6.41, 5.93]

## Task // query cytotoxicity at 10 µM value for entry O=C1CCC(=O)N1c1nn(Cc2ccccc2Cl)cc1Cl
## Result -6.69
